Test Details: NCI Yeast Anticancer Drug Screen. Data for the rad50 strain (AID 155);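 note: 0% = growth of vehicle-only cultures of the same strain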
Measurement Setup: S. cerevisiae rad50 strain growth inhibition; at 50.0 µM; hits give high values
About 79,000 compounds went through this panel and 15% of them were active in at least one assay; those are over-represented in the sample as a whole.
Quantity: growth inhibition (%)
Kindly provide the numeric value in % only, without the unit symbol.

Value of growth inhibition reported for the compound CC(NC(=O)C(Cc1ccccc1)NC(=O)OCc1ccccc1)C(=O)NC1C(CO)OC(n2cnc3c(N)ncnc32)C1O (stereo unspecified) is 15.3

Value of growth inhibition reported for the compound CC(=O)Nc1cccc([N+](=O)[O-])c1 is 8.25

Value of growth inhibition reported for the compound Oc1cc2nc3ccccc3nc2c2ccc(Br)cc12 is -12.8

Value of growth inhibition reported for the compound Cc1cc(Cl)ccc1Nc1nc2c(s1)C(=O)c1ccccc1C2=O is 90.8

Value of growth inhibition reported for the compound CCOc1ccc(Nc2nc(N)nc(N)c2N)cc1 is 2.85

Value of growth inhibition reported for the compound Cn1c(=O)c2c(nc(/N=C/c3ccncc3)n2C)n(C)c1=O is -3.35

Value of growth inhibition reported for the compound C/C(=N/NC(N)=O)C1c2ccccc2Cc2ccccc21 is 18.1

Value of growth inhibition reported for the compound CCOC(=O)CNCc1cccc(Cl)c1 is 5.15

Value of growth inhibition reported for the compound COc1ccc2c(c1)C(=O)C1(C2)[C@H](c2ccccc2)C2C(=O)c3cc(OC)ccc3C2[C@H]1c1ccccc1 (stereo partly specified) is -20.4

Value of growth inhibition reported for the compound CN(C)Cc1cc(C(=O)c2ccccc2)c(O)cc1O is -38.4

Value of growth inhibition reported for the compound COc1ccc(OC)c2cc3c(cc12)C(=O)C(C)=C(C)C3=O is 6.15
